# Test system: Wolbachia pipientis
# experiment_notes: Anti-Wolbachia Cell-Based Screen
# Type: functional
# Parameters: scale not given: in the data most compounds retested in dose-response had high values
# run_parameters: 5 µM
About 13,000 (27%) of roughly 48,000 compounds showed an effect of 50% or more. This is one part of the list.
Assignment: determine reported Percent Effect for the given compounds.
Numbers only, in %.

# count of solved cases: 5
CC1(COc2ccccc2)NCCc2[nH]cnc21 (centres undefined) | 7.349
N#Cc1ccc(CNC2CCN(CCc3ccncc3)CC2)cc1 | -19.98
Cc1cnn(CC2CN(c3ncnc4ccccc34)CCO2)c1 (centres undefined) | -26.67
O=C1NCCO[C@H]2CN(C(=O)Cc3cccs3)CC[C@@H]12 | -57.9
CC(C)N(Cc1cccnc1)C(=O)CNc1ccc(C#N)cc1 | -12.71

Could I get Percent Effect for every one of these entries?
1. CC(C)N1CCO[C@@H]2CN(C(=O)Cc3cccs3)CC[C@@H]2C1.O=C(O)C(F)(F)F
2. COC(=O)Cc1cccc(NC(=O)Cc2cc(C)[nH]n2)c1
3. Cc1nc(NCc2nnc(C)n2C)c2c(CC(C)C)csc2n1
4. c1ccc(Cn2ccnc2CN2CCOC(Cn3cccn3)C2)cc1 (centres undefined)
5. O=C(Cn1cccn1)N1CCc2[nH]nc(-c3ccc4c(c3)OCO4)c2C1

Resp:
[111.3, 1.53, 119.2, 5.197, 1.932]

Could I get Percent Effect for every one of these entries?
1. O=C(CCn1cccc1)N1CCc2[nH]nc(COc3ccccc3)c2C1
2. CC(NC(=O)CN(C)C(C)C)c1ccc(Oc2cccnc2)c(F)c1 (centres undefined)
3. COCCC1(CNC(=O)NCC2CCCS2)CCCC1 (centres undefined)
4. OC1CCN(c2ccc(CNc3nc4ccccc4s3)cc2F)CC1
5. Cc1nc(COc2nc(C(C)C)no2)cs1

Resp:
[87.66, 102.4, -6.803, -3.16, 5.061]

###

# Tested on: Wolbachia pipientis
# experiment_notes: Anti-Wolbachia Cell-Based Screen
# Type: functional
# Set-up: scale not given: in the data most compounds retested in dose-response had high values
# run_parameters: 5 µM
Hit rate of the full screen: of about 48,000 compounds, about 13,000 (27%) showed an effect of 50% or more. Some of the results follow.
Assignment: determine reported Percent Effect for the given compounds.
One number for each entry, in %.

# count of solved cases: 5
Cc1noc(C)c1CN(C)C(=O)COc1cccc(C#N)c1 | -12.54
CN(C)C(=O)NCc1cc2n(n1)CCCN(C[C@H]1[C@@H]3CNC[C@@H]31)C2 | -16.67
COCCc1noc(-c2cn(Cc3ccc(OC)cc3)nn2)n1 | 3.926
CCC1=N[C@@]2(CC[C@@H]3CN(C(=O)Nc4ccc(F)cc4)C[C@@H]32)C(=O)N1 | -8.843
Cc1cnn(CC2CCN(c3cc(C(C)C)nc4ccnn34)CC2)c1 | -2.497

Could I get Percent Effect for every one of these entries?
1. c1cc(CCN2CCC(NCc3ccsc3)CC2)ccn1
2. O=C(c1ccccn1)N1CCC(c2nccn2Cc2ccncc2)CC1
3. O=C(O)C(F)(F)F.O=C1N(Cc2cccnc2)CCC12CCCN(c1ncc(F)cn1)C2 (stereo not drawn)
4. O=C(Nc1ccc(S(=O)(=O)Nc2ccccc2)cc1)N1CCCC1
5. CC(C)Cc1nc(CS(=O)(=O)c2ccccc2)no1
6. FC(F)(F)Sc1ccc(NCc2nnc(C3CC3)o2)cc1
7. Cc1ccccc1CC(=O)NCCNc1nccc(C(F)(F)F)n1

Resp:
-8.408
7.014
109.4
10.15
-7.933
4.65
-4.75

Req: Identify Percent Effect associated with the compound CC(C)OCCC(=O)Nc1ncn(CC(=O)N2CCCCCC2)n1
Resp: -17.71

###

# Test system: Wolbachia pipientis
# experiment_notes: Anti-Wolbachia Cell-Based Screen
# Format: functional
# Set-up: scale not given: in the data most compounds retested in dose-response had high values
# run_parameters: 5 µM
Out of some 48,000 compounds screened, about 13,000 (27%) showed an effect of 50% or more. Some of the results follow.
reported_property: Percent Effect

# count of solved cases: 2
O=C(NC1CCc2ccccc2C1)N1CCN(C(=O)C2CCC2)CC1 (centres undefined) | -14.39%
CCOC(=O)N1CC(=O)N(Cc2ccc(OC)cc2)CC(O)C1 (centres undefined) | 85.47%

Could I get Percent Effect for every one of these entries?
1. COc1ccc(CN2C[C@@H]3CN(C(=O)c4ccsc4)C[C@@H]3C2=O)cc1
2. COc1ccc(CN2CCO[C@H]3CN(C(C)=O)CC[C@H]3C2=O)cc1

Resp:
["-7.26%", "-1.641%"]

###

# Test system: Wolbachia pipientis
# experiment_notes: Anti-Wolbachia Cell-Based Screen
# Assay type: functional
# Parameters: scale not given: in the data most compounds retested in dose-response had high values
# run_parameters: 5 µM
The campaign covered roughly 48,000 compounds. About 13,000 (27%) showed an effect of 50% or more. The list shows a part of the results.
Assignment: determine reported Percent Effect for the given compounds.
Answers are plain numbers, in %.

COCCN1CCN(C(C)C(=O)Nc2ccnn2C(C)C)CC1 (stereo not drawn) | -8.101
CC(C)CN1CCn2c(nc3cc(C(=O)NC(C)C)ccc32)C1 | 121.2

Req: Identify Percent Effect associated with the compound Cc1cc(C(=O)N2C[C@@H]3COC[C@]3(c3nnc(C)o3)C2)on1
Resp: 27.9

###

# System: Wolbachia pipientis
# experiment_notes: Anti-Wolbachia Cell-Based Screen
# Format: functional
# Set-up: scale not given: in the data most compounds retested in dose-response had high values
# run_parameters: 5 µM
In all, about 48,000 compounds went through this assay and about 13,000 (27%) showed an effect of 50% or more. Some of the results follow.
reported_property: Percent Effect (%)
Give bare numbers, in %.

Cc1cc(C(=O)N2CCc3nc(N4CCOCC4)nc(C)c3C2)c(C)o1.O=CO | 94.45
CN(C)c1nc(N2CCCC2)nc2c1CCN(C(=O)c1ccoc1)CC2 | -4.722
O=C1CSCN1CC(=O)N1CCCC1c1nc2ccccc2s1 (configuration not stated) | -3.784
CNc1cncc(C2CCCN2Cc2ccccc2OCC(=O)O)n1 (configuration not stated) | -10.59
Cc1cc(C(=O)N2CCc3nc(N4CCCC4)nc(C)c3CC2)c(C)o1 | 102.5

Could I get Percent Effect for every one of these entries?
1. CCNC(=O)N1CC[C@H]2CC(=O)N(C3CCCCC3)CC[C@H]2C1
2. CC/C=C(/C)C(=O)NCc1ccc(OC)nc1
3. Cc1cc(C(=O)N[C@@H]2CCNC[C@H]2O)ccc1Cl
4. CC1CCN(c2nc(O)cc(C3CC(=O)N(C4CCCCC4)C3)n2)CC1 (configuration not stated)
5. O=C1CC(c2ccc3c(c2)OCO3)c2cn[nH]c2N1 (configuration not stated)

Resp:
[0.2272, -1.205, -15.13, 162.6, 104.3]

Could I get Percent Effect for every one of these entries?
1. O=C(CNC(=O)C1CCCC1)NCC(O)c1ccc2ccccc2c1 (configuration not stated)
2. Cc1cccc(CN2CCCC2c2cncc(Nc3nncs3)n2)c1 (configuration not stated)

Resp:
-9.214
111.5

###

# Tested on: Wolbachia pipientis
# experiment_notes: Anti-Wolbachia Cell-Based Screen
# Type: functional
# Parameters: scale not given: in the data most compounds retested in dose-response had high values
# run_parameters: 5 µM
Among all 48,000 compounds or so, about 13,000 (27%) showed an effect of 50% or more. Some of the results follow.
reported_property: Percent Effect (%)
Give bare numbers, in %.

# count of solved cases: 10
Cn1cc(C2CC(=O)NC23CCN(C(=O)C2CC=CC2)CC3)cn1 (stereo not drawn) | 98.1
Cc1cccc(CNC(=O)c2cccnc2N)c1 | 165.4
CCn1nccc1C(=O)N1CCCCC1CCc1ccc(O)cc1 (stereo not drawn) | 1.71
COc1ccc(Br)cc1CC(=O)Nc1cc(C)n[nH]1 | -11.39
CCCc1c(C2CCOC(C)(C)C2)nc(N)c(C#N)c1-c1cnn(C)c1 (stereo not drawn) | 105.7
CN(C)CCO[C@@H]1CC[C@H]2[C@H]1OCCN2C(=O)c1ccnnc1.O=C(O)C(F)(F)F | 98
CC(=O)NCC(=O)N1CCC2(CC1)NC(=O)CC2c1cnn(C)c1 (stereo not drawn) | 117.4
O=C(O)C(F)(F)F.O=C1CC2(CCN(CC3CC3)C2)CN1c1cccc(F)c1 (stereo not drawn) | -1.195
CCN1CCC2(CN(C(C)=O)CC23CCN(CC2CC2)CC3)C1=O.O=C(O)C(F)(F)F (stereo not drawn) | -51.48
Cn1cc(-c2noc(C3(C)CCOCC3)n2)cn1 | -4.622

Could I get Percent Effect for every one of these entries?
1. Cc1c(-c2cnn(C)c2)nc(N)c(C#N)c1-c1ccc(CO)o1
2. CS(=O)(=O)N1CC2(CCN(CC3CCCCC3)CC2)Cc2ccccc21
3. O=C(CC1OCCc2ccccc21)NCCn1cccc1 (stereo not drawn)
4. CN1C(=O)C2(CCN(CC3CCC3)C2)c2ccccc21.O=C(O)C(F)(F)F (stereo not drawn)
5. N#Cc1c(C2CC2)cc(-c2ccc(O)cc2)nc1N
6. CCOc1ccc(Br)cc1-c1cc(N)[nH]n1.Cl

Resp:
1. 0.3251
2. 144
3. -19.46
4. 10.05
5. -0.3878
6. 161.1

Values from ChEMBL document CHEMBL3988442
